Entries and their EC50 values follow.
Target: T1, CD25 (Homo sapiens (Human), UniProt P01589 22-240)
T1 construct: also called IL-2R alpha chain
T1 sequence: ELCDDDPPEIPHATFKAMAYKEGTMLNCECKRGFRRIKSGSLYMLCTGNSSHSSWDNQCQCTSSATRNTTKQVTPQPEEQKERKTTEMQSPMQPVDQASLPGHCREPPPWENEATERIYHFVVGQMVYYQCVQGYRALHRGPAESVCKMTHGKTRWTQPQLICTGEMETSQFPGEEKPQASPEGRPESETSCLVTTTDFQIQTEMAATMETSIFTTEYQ
Assay: ELISA, CD25 coated plate

Take a look at these entries with their results.
BINDER | EC50
IL-2 mutein SEQ ID NO: 53 (Fc fusion, also called IL-2 L53I N88D V69A, Q74P, C125S-G4Sx4-Fc) APTSSSTKKTQLQLEHLLLDLQMILNGINNYKNPKLTRMLTFKFYMPKKATEIKHLQCLEEELKPLEEALNLAPSKNFHLRPRDLISDINVIVLELKGSETTFMCEYADETATIVEFLNRWITFSQSIISTLTGGGGSGGGGSGGGGSGGGGSDKTHTCPPCPAPEAAGAPSVFLFPPKPKDTLMISRTPEVTCVVVDVSHEDPEVKFNWYVDGVEVHNAKTKPREEQYNSTYRVVSVLTVLHQDWLNGKEYKCKVSNKALPAPIEKTISKAKGQPREPQVYTLPPSREEMTKNQVSLTCLVKGFYPSDIAVEWESNGQPENNYKTTPPVLDSDGSFFLYSKLTVDKSRWQQGNVFSCSVMHEALHNHYTQKSLSLSPG | < 1 nM
IL-2 mutein SEQ ID NO: 55 (Fc fusion, also called IL-2 L80I N88D V69A, C125S Q74P-G4Sx4-Fc) APTSSSTKKTQLQLEHLLLDLQMILNGINNYKNPKLTRMLTFKFYMPKKATELKHLQCLEEELKPLEEALNLAPSKNFHIRPRDLISDINVIVLELKGSETTFMCEYADETATIVEFLNRWITFSQSIISTLTGGGGSGGGGSGGGGSGGGGSDKTHTCPPCPAPEAAGAPSVFLFPPKPKDTLMISRTPEVTCVVVDVSHEDPEVKFNWYVDGVEVHNAKTKPREEQYNSTYRVVSVLTVLHQDWLNGKEYKCKVSNKALPAPIEKTISKAKGQPREPQVYTLPPSREEMTKNQVSLTCLVKGFYPSDIAVEWESNGQPENNYKTTPPVLDSDGSFFLYSKLTVDKSRWQQGNVFSCSVMHEALHNHYTQKSLSLSPG | < 1 nM

Turning now to a further binder:
Looking for the measured EC50 of IL-2 mutein SEQ ID NO: 56 (Fc fusion, also called IL-2 L118I N88D V69A, Q74P, C125S-G4Sx4-Fc) APTSSSTKKTQLQLEHLLLDLQMILNGINNYKNPKLTRMLTFKFYMPKKATELKHLQCLEEELKPLEEALNLAPSKNFHLRPRDLISDINVIVLELKGSETTFMCEYADETATIVEFINRWITFSQSIISTLTGGGGSGGGGSGGGGSGGGGSDKTHTCPPCPAPEAAGAPSVFLFPPKPKDTLMISRTPEVTCVVVDVSHEDPEVKFNWYVDGVEVHNAKTKPREEQYNSTYRVVSVLTVLHQDWLNGKEYKCKVSNKALPAPIEKTISKAKGQPREPQVYTLPPSREEMTKNQVSLTCLVKGFYPSDIAVEWESNGQPENNYKTTPPVLDSDGSFFLYSKLTVDKSRWQQGNVFSCSVMHEALHNHYTQKSLSLSPG , can you help?
< 1 nM

The measured values listed here are drawn from patent US20210206856A1.
